TARGET OR SYSTEM: complement C5a receptor 1 (C5aR1) (Homo sapiens)
Construct: β-galactosidase fragment (PathHunter enzyme complementation); host or cells: CHO-K1 (PathHunter CHO-K1 C5aR1 β-arrestin cell line)
ASSAY METHOD TEXT: β-arrestin recruitment via C5aR1 activation in live CHO-K1 cells (PathHunter), antagonist mode
Assay type: cell-based
TEST SETTINGS: antagonist mode; recombinant hC5a (EC90) as competing natural agonist; live CHO-K1 cells; read-out: [Antagonist] B-arrestin2 recruitment: Average IC50
pIC50: −log10 of the molar value.
The following molecules are listed with their measured pIC50 values.

Study these solved cases before continuing.
Cc1cnc2c(C)c(C3CCN(c4c(C)ccnc4F)CC3)c(=O)n(Cc3nccnc3C(F)(F)F)c2n1 ... 5.30 to 6.30
Cc1cnc2cc([C@H]3CC[C@H](c4cnsc4C)CC3)c(=O)n(Cc3nccnc3C(F)(F)F)c2n1 ... > 6.30

Measured pIC50, Cc1cnc2cc(C3CCN(c4cc(F)cnc4C)CC3)c(=O)n(Cc3nccnc3C(F)(F)F)c2n1 : < 4.00

Measured pIC50, Cc1cccc(F)c1N1CCC(c2c(C)c3nccnc3n(Cc3nccnc3C(F)(F)F)c2=O)CC1 : 5.30 to 6.30

* * *

TARGET OR SYSTEM: complement C5a receptor 1 (C5aR1) (Homo sapiens, UniProt P21730)
Construct: β-galactosidase fragment (PathHunter enzyme complementation); host or cells: CHO-K1 (PathHunter CHO-K1 C5aR1 β-arrestin cell line)
Sequence (P21730 whole entry, the tested form may be a part): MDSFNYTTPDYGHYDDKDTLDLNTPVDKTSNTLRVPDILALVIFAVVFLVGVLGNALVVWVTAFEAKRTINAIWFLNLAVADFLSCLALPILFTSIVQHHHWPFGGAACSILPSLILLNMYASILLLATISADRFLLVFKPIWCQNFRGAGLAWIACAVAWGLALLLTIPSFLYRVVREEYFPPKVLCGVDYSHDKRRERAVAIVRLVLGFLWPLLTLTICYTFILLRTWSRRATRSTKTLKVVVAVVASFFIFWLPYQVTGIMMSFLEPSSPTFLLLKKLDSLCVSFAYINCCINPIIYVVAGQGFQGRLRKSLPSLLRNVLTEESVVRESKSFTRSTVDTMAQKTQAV
ASSAY METHOD TEXT: β-arrestin recruitment via C5aR1 activation in live CHO-K1 cells (PathHunter), antagonist mode
Type: cell-based
TEST SETTINGS: antagonist mode; recombinant hC5a (EC90) as competing natural agonist; live CHO-K1 cells; read-out: [Antagonist] B-arrestin2 recruitment: Average IC50
QUANTITY: IC50

Study these solved cases before continuing.
COc1cccnc1Cn1c(=O)c([C@H]2CC[C@H](c3c(C)cccc3F)CC2)cc2nc(C(F)(F)F)cnc21 ... 5 to 100 µM
Cc1cnc2cc(C3CCN(c4cc(F)cnc4C)CC3)c(=O)n(Cc3ncccc3C(F)(F)F)c2n1 ... 5 to 100 µM
Cc1cnc2cc([C@H]3CC[C@H](c4c(F)cccc4C(F)(F)F)CC3)c(=O)n(Cc3ncccc3OC(F)(F)F)c2n1 ... 0.5 to 5 µM
O=c1c(C2CCN(c3ccccc3C(F)(F)F)CC2)cc2nccnc2n1Cc1nccnc1C(F)(F)F ... 0.5 to 5 µM
Cc1ncc2cc(N3CCN(c4c(C)cccc4F)CC3)c(=O)n(Cc3ncccc3OC(F)F)c2n1 ... 0.5 to 5 µM
Cc1cnc2cc([C@H]3CC[C@H](c4c(C)cccc4F)CC3)c(=O)n(Cc3ncccc3C(F)(F)F)c2n1 [121a] ... < 0.5 µM

Measured IC50, O=c1c(C2CCN(c3cnccc3Cl)CC2)cc2nccnc2n1Cc1ncccc1C(F)(F)F : 0.5 to 5 µM

Measured IC50, Cc1cnc2cc([C@H]3CC[C@H](c4c(C)cccc4F)C3)c(=O)n(Cc3nccnc3C(F)(F)F)c2n1 [197B] : 0.5 to 5 µM

Measured IC50, Cc1cnc2cc([C@H]3CC[C@H](c4cnsc4C)CC3)c(=O)n(Cc3ncccc3C(F)(F)F)c2n1 : < 0.5 µM

Measured IC50, Cc1cnc2cc([C@H]3CC[C@@H](c4c(C)ccnc4F)CC3)c(=O)n(Cc3ncccc3C(F)(F)F)c2n1 [147A] : < 0.5 µM

Measured IC50, Cc1ccc2nc(C3CCN(c4c(C)cccc4F)CC3)c(=O)n(Cc3nccnc3C(F)(F)F)c2c1 [144A] : > 100 µM

* * *

TARGET OR SYSTEM: complement C5a receptor 1 (C5aR1) (Homo sapiens, UniProt P21730)
Construct: β-galactosidase fragment (PathHunter enzyme complementation); host or cells: CHO-K1 (PathHunter CHO-K1 C5aR1 β-arrestin cell line)
ASSAY METHOD TEXT: β-arrestin recruitment via C5aR1 activation in live CHO-K1 cells (PathHunter), antagonist mode
Assay type: cell-based
TEST SETTINGS: antagonist mode; recombinant hC5a (EC90) as competing natural agonist; live CHO-K1 cells; read-out: [Antagonist] B-arrestin2 recruitment: Average IC50
The following molecules are listed with their measured IC50 values.

Study these solved cases before continuing.
Cc1cccc(F)c1N1CCC(c2cc3nccnc3n([C@H]3CCc4nccnc43)c2=O)CC1 [160A] ... 5 to 100 µM
Cc1ccc2cc([C@H]3CC[C@H](c4c(C)cccc4F)CC3)c(=O)n(Cc3ncccc3C(F)F)c2n1 ... < 0.5 µM
Cc1ccc2cc([C@H]3CC[C@H](c4c(C)cccc4F)CC3)c(=O)n(Cc3ncccc3OC(F)F)c2n1 ... < 0.5 µM
O=c1c(C2CCN(c3cccnc3F)CC2)cc2nccnc2n1Cc1ncccc1C(F)(F)F ... > 100 µM
Cc1cccc(F)c1N1CCC(c2nc3ccccc3n(Cc3nccnc3C(F)(F)F)c2=O)CC1 ... > 100 µM

Measured IC50, Cc1cccc(F)c1N1CCC(n2c(=O)c3ccccc3n(Cc3ncccc3C(F)(F)F)c2=O)CC1 : 0.5 to 5 µM

Measured IC50, Cc1cnc2cc([C@H]3CC[C@@H](c4c(C)cccc4F)C3)c(=O)n(Cc3ncccc3OC(F)F)c2n1 [175A] : < 0.5 µM

Measured IC50, FC(F)(F)c1cccnc1CN1CC(C2CCN(c3ncccc3Cl)CC2)=Cc2nccnc21 : < 0.5 µM

Measured IC50, Cc1cnc2cc(N3CCN(c4cc(F)cnc4C)CC3)c(=O)n(Cc3ncccc3C(F)(F)F)c2n1 : > 100 µM

Measured IC50, Cc1cccc(F)c1N1CCC(c2cc3nccnc3n(Cc3nccnc3C(F)(F)F)c2=O)C1 (stereo not shown) : 0.5 to 5 µM

Measured IC50, Cc1cnc2cc(C3CCN(c4cnccc4C(F)F)CC3)c(=O)n(Cc3ncccc3C(F)(F)F)c2n1 : < 0.5 µM

Measured IC50, Cc1cnc2cc(N3CCN(c4c(C)cccc4F)CC3)c(=O)n(Cc3ncccc3OC(F)(F)F)c2n1 : < 0.5 µM

Measured IC50, Cc1cnc2cc([C@@H]3CC[C@H](c4c(C)cccc4F)C3)c(=O)n(Cc3ncccc3C(F)F)c2n1 [187C] : < 0.5 µM

* * *

The following compounds are listed with their measured IC50 values.
TARGET OR SYSTEM: complement C5a receptor 1 (C5aR1) (Homo sapiens, UniProt P21730)
Construct: β-galactosidase fragment (PathHunter enzyme complementation); host or cells: CHO-K1 (PathHunter CHO-K1 C5aR1 β-arrestin cell line)
ASSAY METHOD TEXT: β-arrestin recruitment via C5aR1 activation in live CHO-K1 cells (PathHunter), antagonist mode
Type: cell-based
TEST SETTINGS: antagonist mode; recombinant hC5a (EC90) as competing natural agonist; live CHO-K1 cells; read-out: [Antagonist] B-arrestin2 recruitment: Average IC50

Study these solved cases before continuing.
Cc1cnc2cc(C3CCN(c4c(C)ccnc4F)CC3)c(=O)n(Cc3ncccc3C(F)(F)F)c2n1 ... < 0.5 µM
Cc1cccc(F)c1C1CCN(c2cc3nccnc3n(Cc3nccnc3C(F)(F)F)c2=O)CC1 ... 5 to 100 µM
Cc1cccc(F)c1N1CCC(c2cc3nccnc3n(Cc3cnccc3C(F)(F)F)c2=O)CC1 ... < 0.5 µM
COc1nccc(C)c1[C@H]1CC[C@H](c2cc3ccc(C)nc3n(Cc3ncccc3OC(F)(F)F)c2=O)CC1 ... < 0.5 µM
Cc1cnc2cc([C@H]3CC[C@H](c4ncccc4C(F)(F)F)CC3)c(=O)n(Cc3ncccc3C(F)(F)F)c2n1 ... < 0.5 µM

Measured IC50, Cc1cccc(F)c1[C@H]1CC[C@H](c2cc3nc(CC(F)(F)F)cnc3n(Cc3ncccc3C(F)(F)F)c2=O)CC1 : < 0.5 µM

Measured IC50, Cc1cnc2cc([C@@H]3CC[C@H](c4c(C)cccc4F)C3)c(=O)n(Cc3nccnc3C(F)(F)F)c2n1 [197C] : 5 to 100 µM

Measured IC50, Cc1c(C2CCN(c3ccccc3C(F)(F)F)CC2)c(=O)n(Cc2ccccc2F)c2nccnc12 : < 0.5 µM

Measured IC50, Cc1cccc(F)c1N1CCC(c2c(C)c3nccnc3n(Cc3ccccc3C(F)(F)F)c2=O)CC1 : 0.5 to 5 µM

Measured IC50, Cc1ccc2cc([C@H]3CC[C@H](c4c(C)cccc4F)CC3)c(=O)n(Cc3nccnc3C3CC3)c2n1 : < 0.5 µM

Measured IC50, Cc1cnc2cc([C@H]3CC[C@H](c4c(C)ccnc4F)CC3)c(=O)n(Cc3nccnc3C)c2n1 [135B] : 5 to 100 µM

Measured IC50, Cc1cccc(F)c1N1CCN(c2cc3nccnc3n(Cc3ncccc3C(F)(F)F)c2=O)CC1 : < 0.5 µM

Measured IC50, Cc1cnc2cc(C3CCN(c4c(C)cccc4F)CC3)c(=O)n(Cc3ncccc3C(F)(F)F)c2n1 : < 0.5 µM

Measured IC50, Cc1cnc2cc([C@H]3CC[C@@H](c4c(C)cccc4F)CC3)c(=O)n(Cc3nccnc3C)c2n1 [137A] : 5 to 100 µM

Measured IC50, Cc1cccc(F)c1[C@H]1CC[C@H](c2cc3ncc(C(C)(F)F)nc3n(Cc3ncccc3C(F)(F)F)c2=O)CC1 : < 0.5 µM
